The entries below come with measured IC50 values attached.
system: K562; assay: Cytotoxicity against human K562 cells; assay type: functional; settings: read-out: ID50 (the source's name)
Measured Endpoint: IC50 (µg/mL)

> print(dat)
                                  structure  sign  recorded.result
1  COC1=C(Br)[C@@H](O)[C@]2(C=C1Br)CC(C(=O)NCCc1cnc[nH]1)=NO2     =             24.1
2  COc1ccc(C/C(=N/O)C(=O)NCCc2cc(Br)c(OCCCN(C)C)c(Br)c2)cc1Br     =             1.37
3  COC1=C(Br)[C@@H](O)[C@]2(C=C1Br)CC(C(=O)NCCc1cnc(N)[nH]1)=NO2     >               10
4  CNCCCOc1c(Br)cc(CCNC(=O)/C(Cc2ccc(OC)c(Br)c2)=N/O)cc1Br     =             1.24
5  COc1ccc(C/C(=N\O)C(=O)NCCc2cc(Br)c(OCCC[N+](C)(C)[O-])c(Br)c2)cc1Br     =             5.97

====

The entries below come with measured IC50 values attached.
test system: K562; experiment: Cytotoxicity against human K562 cells; format: functional; settings: read-out: ID50 (the source's name)
Measured Endpoint: IC50

> print(dat)
                                  structure  recorded.result
1  COC1=C(Br)[C@H](O)[C@@]2(C=C1Br)CC(C(=O)NCCCc1cnc(N)[nH]1)=NO2       6.91 µg/mL
2  COC1=C(Br)[C@H](O)[C@@]2(C=C1Br)CC(C(=O)NCCCOc1c(Br)cc(CCNC(=O)CCCCCCCCCCCC(C)C)cc1Br)=NO2       42.7 µg/mL
3  COC1=C(Br)[C@@H](O)[C@]2(C=C1Br)CC(C(=O)NCCCOc1c(Br)cc(CCN)cc1Br)=NO2       27.9 µg/mL
4  CNCCCOc1c(Br)cc(CCNC(=O)C2=NO[C@]3(C=C(Br)C(OC)=C(Br)[C@@H]3O)C2)cc1Br       6.02 µg/mL
